Source of measurements: PubChem BioAssay

- experiment description: HepG2 cytotoxicity, primary screen, cytotoxicity control for P. falciparum antimalarial project, cell-based, ATP luminescence (AID 2303);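 note: 0% = DMSO wells and 100% = digitonin-killed cells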
- conditions: HepG2 viability, 24-48 h, at 10 µM, active compounds read high
The source made the active and inactive calls.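 Rule for the calls: active = inhibition above 50%; inactive = the rest.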
inhibition reference

[
  {
    "compound": "COc1cc(Nc2nccc(N3CCC(NC(=O)c4cccc(C#N)c4)C3)n2)cc(OC)c1OC (centres undefined)",
    "inhibition": "13% (inactive)"
  },
  {
    "compound": "O=C(Nc1cccc(CN2CCN(Cc3ccc(O)cc3)CC2)c1)c1cccc(C(F)(F)F)c1",
    "inhibition": "21% (inactive)"
  },
  {
    "compound": "COC(=O)c1cccc(CNCc2cccc(-c3cccc(-c4nc5ccccc5[nH]4)c3)c2)c1",
    "inhibition": "3% (inactive)"
  },
  {
    "compound": "O=C(c1cnn(-c2ccccc2)c1C(F)(F)F)N1CCN(c2ccnc3cc(Cl)ccc23)CC1",
    "inhibition": "34% (inactive)"
  },
  {
    "compound": "COCCOC(=O)C(=O)c1c(-c2ccccc2)c(-c2ccc(OC)c(OC)c2)c2c3cc(OC)c(OC)cc3ccn12",
    "inhibition": "4% (inactive)"
  },
  {
    "compound": "O=S(=O)(Nc1cccc(CCN2CCCCC2CCN2CCCC2)c1)c1ccc2ccccc2c1 (centres undefined)",
    "inhibition": "22% (inactive)"
  },
  {
    "compound": "O=C(NCC1CCN(Cc2cccc(C(F)(F)F)c2)C1)c1cc(-c2cccc(F)c2)cs1 (centres undefined)",
    "inhibition": "19% (inactive)"
  },
  {
    "compound": "NCCNc1ccc([N+](=O)[O-])cc1C(=O)Nc1cccc(Cl)c1",
    "inhibition": "23% (inactive)"
  },
  {
    "compound": "Cc1ccc(C(=O)Cn2nc(-c3ccc(C)c(S(=O)(=O)N4CCCCC4)c3)ccc2=O)cc1",
    "inhibition": "6% (inactive)"
  }
]
